# credit: patent US5736578A

# human ML1A (Homo sapiens): pIC50 values follow
# Sequence (P48039 whole entry): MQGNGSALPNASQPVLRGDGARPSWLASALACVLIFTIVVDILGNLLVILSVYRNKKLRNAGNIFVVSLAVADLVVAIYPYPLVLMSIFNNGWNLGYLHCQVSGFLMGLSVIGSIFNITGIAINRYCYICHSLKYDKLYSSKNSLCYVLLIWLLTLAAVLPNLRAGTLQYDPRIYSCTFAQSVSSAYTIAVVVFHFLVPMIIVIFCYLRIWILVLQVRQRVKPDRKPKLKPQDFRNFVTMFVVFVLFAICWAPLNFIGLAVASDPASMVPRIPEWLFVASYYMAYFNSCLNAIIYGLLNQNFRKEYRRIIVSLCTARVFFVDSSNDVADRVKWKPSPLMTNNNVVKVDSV
pIC50: −log10 of the molar value.
quantity-name: pIC50

compound="CCCC(=O)NCCC1c2ccccc2-c2ccc(OC)cc21 (stereo not shown) [Example 6]" target_under_test="human ML1A (Homo sapiens)" measured="> 7.00"
compound="CCOc1ccc2c(c1)C(CCNC(=O)CC)c1cc(OC)ccc1-2 (stereo not shown) [Example 29]" target_under_test="human ML1A (Homo sapiens)" measured="> 7.00"
compound="C=CC(=O)NCCC1c2ccccc2-c2ccc(OC)cc21 (stereo not shown) [Example 11]" target_under_test="human ML1A (Homo sapiens)" measured="> 7.00"
compound="COc1ccc2c(c1)C(CCNC(=O)C(C)(C)C)c1cc(OC)ccc1-2 [Example 14]" target_under_test="human ML1A (Homo sapiens)" measured="> 6.30"
